The values you see were collected from patent US20260007748A1.

Biological target: T1, B cell maturation antigen (BCMA) (human, UniProt Q02223 1-184)
T1 construct: BCMA as carried by RPMI-8226 (high BCMA) and Daudi (low BCMA) tumor cells; also called TNFRSF17; tumor necrosis factor receptor superfamily member 17
T1 sequence: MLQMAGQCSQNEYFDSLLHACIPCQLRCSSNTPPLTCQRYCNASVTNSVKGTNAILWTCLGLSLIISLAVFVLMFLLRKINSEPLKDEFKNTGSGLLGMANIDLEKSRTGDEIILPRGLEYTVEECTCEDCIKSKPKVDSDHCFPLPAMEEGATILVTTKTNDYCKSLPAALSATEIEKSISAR
Assay: co-culture of transduced PBMCs with RPMI-8226 (high BCMA) or Daudi (low BCMA) cells; recognition read by IFNγ
Measurement Name: binding result

binder="anti-BCMA CAR of recombinant lentivirus LV 18 (SEQ ID NO: 283) (other, Chimeric antigen receptor on transduced human PBMCs: anti-BCMA VHH, CD8α hinge and TM, CD137 costim, CD3ζ) EVQLLESGGGLVQPGGSLRLSCAASGFTFSSEGMSWVRQAPGKERELVSAISGSGDHTYYADSVRGRFTISRDNSKNTLYLQMNSLRAEDTAVYYCNALEGGPTTAIQPGGPDYWGQGTQVTVSSTTTPAPRPPTPAPTIASQPLSLRPEACRPAAGGAVHTRGLDFACDIYIWAPLAGTCGVLLLSLVITLYCKRGRKKLLYIFKQPFMRPVQTTQEEDGCSCRFPEEEEGGCELRVKFSRSADAPAYQQGQNQLYNELNLGRREEYDVLDKRRGRDPEMGGKPRRKNPQEGLYNELQKDKMAEAYSEIGMKGERRRGKGHDGLYQGLSTATKDTYDALHMQALPPR" measurement_name="binding result" value_measured=binds
binder="anti-BCMA CAR of recombinant lentivirus LV 15 (SEQ ID NO: 279) (other, Chimeric antigen receptor on transduced human PBMCs: anti-BCMA VHH, CD8α hinge and TM, CD137 costim, CD3ζ) EVQLLESGGGLVQPGGSLRLSCAASGFTFDSYTMSWYRQAPGKERELVSAISGHGDSTYYADSVKGRFTISRDNSKNTLYLQMNSLRAEDTAVYYCTRISITTEWLAGDYWGQGTQVTVSSTTTPAPRPPTPAPTIASQPLSLRPEACRPAAGGAVHTRGLDFACDIYIWAPLAGTCGVLLLSLVITLYCKRGRKKLLYIFKQPFMRPVQTTQEEDGCSCRFPEEEEGGCELRVKFSRSADAPAYQQGQNQLYNELNLGRREEYDVLDKRRGRDPEMGGKPRRKNPQEGLYNELQKDKMAEAYSEIGMKGERRRGKGHDGLYQGLSTATKDTYDALHMQALPPR" measurement_name="binding result" value_measured=binds
binder="anti-BCMA CAR of recombinant lentivirus LV 13 (SEQ ID NO: 277) (other, Chimeric antigen receptor on transduced human PBMCs: anti-BCMA VHH, CD8α hinge and TM, CD137 costim, CD3ζ; also called LV 13.1 to LV 13.9) EVQLLESGGGLVQPGGSLRLSCAASGFTFDRYAMSWFRQAPGKEREGVSAISTSGDSTYYADSVKGRFTISRDNSKNTLYLQMNSLRAEDTAVYYCAVLDEEAGAEGGYWGQGTQVTVSSTTTPAPRPPTPAPTIASQPLSLRPEACRPAAGGAVHTRGLDFACDIYIWAPLAGTCGVLLLSLVITLYCKRGRKKLLYIFKQPFMRPVQTTQEEDGCSCRFPEEEEGGCELRVKFSRSADAPAYQQGQNQLYNELNLGRREEYDVLDKRRGRDPEMGGKPRRKNPQEGLYNELQKDKMAEAYSEIGMKGERRRGKGHDGLYQGLSTATKDTYDALHMQALPPR" measurement_name="binding result" value_measured=binds
